# Target of assay: serotonin transporter (Rattus norvegicus, UniProt P31652)
# Construct: from tissue
# Sequence (P31652 whole entry): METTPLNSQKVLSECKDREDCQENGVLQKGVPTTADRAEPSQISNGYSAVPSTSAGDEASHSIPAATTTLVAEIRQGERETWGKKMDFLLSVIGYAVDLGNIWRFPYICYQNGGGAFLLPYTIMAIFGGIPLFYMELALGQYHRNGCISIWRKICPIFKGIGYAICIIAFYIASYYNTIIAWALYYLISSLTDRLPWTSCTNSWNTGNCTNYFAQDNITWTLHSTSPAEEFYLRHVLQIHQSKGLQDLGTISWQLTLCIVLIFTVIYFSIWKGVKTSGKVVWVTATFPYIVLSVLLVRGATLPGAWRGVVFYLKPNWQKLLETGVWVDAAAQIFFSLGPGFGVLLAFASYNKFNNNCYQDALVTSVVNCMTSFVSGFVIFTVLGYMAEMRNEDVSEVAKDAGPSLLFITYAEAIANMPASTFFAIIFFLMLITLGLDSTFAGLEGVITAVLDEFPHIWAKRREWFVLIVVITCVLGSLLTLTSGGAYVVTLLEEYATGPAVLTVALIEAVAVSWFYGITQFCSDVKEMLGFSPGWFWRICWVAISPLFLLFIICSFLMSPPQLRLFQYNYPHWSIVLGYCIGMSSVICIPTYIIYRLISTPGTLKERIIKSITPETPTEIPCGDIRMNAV
# Assay protocol: Inhibition of [3H]paroxetine radioligand binding at the serotonin transporter
# Condition summary: 5-HT=[3H] paroxetine; read-out: 5-HT IC50 for inhibition of radioligand binding
Where a name gives a salt, the structure may show the parent alone.
# key: entry, value: IC50
Lab book: enter the figure in nM, no units written.

Example results:
CN1[C@H]2CC[C@@H]1[C@@H](c1ncc(-c3ccccc3)o1)[C@@H](c1ccc(Cl)cc1)C2 [RTI-4229-189, Tartrate]    1120
COC(=O)C1C(c2ccc(Cl)cc2)CC2CCC1N2C (centres unmarked)    44.5
CCc1ccc(C2CC3CCC(N3)C2C(=O)OC)cc1 (centres unmarked)    8.13

Query :: Look up IC50 for this compound: COC(=O)C1C2CCC(CC1c1ccc(C(C)C)cc1)N2 (centres unmarked)
Result :: 15.1

Query :: Suppose we examine the compound CN1C2CCC1C(c1nc(-c3ccccc3)no1)C(c1ccc(Cl)cc1)C2 (centres unmarked) ; what IC50 value has been reported?
Result :: 195

Query :: Requested read-out: IC50. Entry: COC(=O)C1C(c2ccc(I)cc2)CC2CCC1N2C (centres unmarked) [RTI-4229-352]
Result :: 64.9

Query :: Returns the measured IC50 for the input compound. Input: Cc1ccc(C2CC3CCC(C2C(=O)OC(C)C)N3C)cc1 (centres unmarked)
Result :: 6090

Query :: Which measured IC50 value corresponds to CC(C)OC(=O)C1C(c2ccc(Cl)cc2)CC2CCC1N2C (centres unmarked) ?
Result :: 1400

Query :: Given Cc1ccc(C2CC3CCC(C2C(=O)Oc2cccc(C)c2)N3C)cc1 (centres unmarked) , state its recorded IC50.
Result :: 5240

Query :: Fill in: IC50 of Cc1ccc(C2CC3CCC(C2C(=O)OC2CC2)N3C)cc1 (centres unmarked) is ___
Result :: 1070

Query :: Need IC50 of CN1C2CCC1C(c1ccccc1)C(c1ccccc1)C2 (centres unmarked) , thanks.
Result :: 34700

Query :: Requested read-out: IC50. Entry: CN1[C@H]2CC[C@@H]1[C@@H](c1nnc(-c3ccccc3)o1)[C@@H](c1ccc(Cl)cc1)C2 [RTI-4229-188, Hydrochloride]
Result :: 3300

Query :: Name the reported IC50 value associated with the compound Cc1ccccc1OC(=O)C1C(c2ccc(Cl)cc2)CC2CCC1N2C (centres unmarked)
Result :: 3770

Query :: Any idea what its IC50 is? The compound is C/C=C/c1ccc(C2CC3CCC(C2C(=O)OC)N3C)cc1 (centres unmarked)
Result :: 11.4

---

# Target of assay: serotonin transporter (Rattus norvegicus, UniProt P31652)
# Construct: from tissue
# Assay protocol: Inhibition of [3H]paroxetine radioligand binding at the serotonin transporter
# Condition summary: IC50 5-HT [3H]-paroxetine, Table IV
pIC50: −log10 of the molar value.
Criterion: pIC50 meeting or surpassing 6. Met: T. Not met: F.

Check out these entries, answers already filled in.
CN1[C@H]2CC[C@@H]1[C@@H](C(=O)O)[C@@H](c1ccc(I)cc1)C2    F
COC(=O)OCC1C(c2ccc(Cl)cc2)CC2CCC1N2C (centres unmarked)    F
CN1[C@H]2CC[C@@H]1[C@@H](CO)[C@@H](c1ccc(Br)cc1)C2    T

Query :: Given CC1C(c2ccc(Cl)cc2)CC2CCC1N2C (centres unmarked) , state whether its pIC50 is at least 6.
Result :: T

Query :: Say whether CN1[C@H]2CC[C@@H]1[C@@H](C#N)[C@@H](c1ccc(Cl)cc1)C2 shows pIC50 of 6 or more.
Result :: F

---

# Tested on: dopamine transporter
# Type: binding
# Condition summary: ratio of IC50 values, Table II
Structures can show the parent of a compound that is named as a salt.
In this section, each of the compounds is paired with its reported 5-HT/DA Ratio.
Reply with the value as a number alone.

CN1[C@H]2CC[C@@H]1[C@@H](c1nnc(-c3ccccc3)o1)[C@@H](c1ccc(Cl)cc1)C2 [RTI-4229-188, Hydrochloride]    262
Cc1ccc([C@H]2C[C@@H]3CC[C@H]([C@H]2c2nnc(C)o2)N3C)cc1 [RTI-4229-194, Hydrochloride]    1098
CN1[C@H]2CC[C@@H]1[C@@H](c1ncc(-c3ccccc3)s1)[C@@H](c1ccc(Cl)cc1)C2 [RTI-4229-219, Hydrochloride]    1811
Cc1ccc([C@H]2C[C@@H]3CC[C@H]([C@H]2c2nnc(-c4ccccc4)o2)N3C)cc1 [RTI-4229-195, Hydrochloride]    491

Query :: Lab note: need 5-HT/DA Ratio for Cc1ccc([C@H]2C[C@@H]3CC[C@H]([C@H]2c2nn[nH]n2)N3C)cc1 [RTI-157, Hydrochloride] on dopamine transporter, anyone have it?
Result :: 28

Query :: Short answer please: 5-HT/DA Ratio, dopamine transporter, entry CN1[C@H]2CC[C@@H]1[C@@H](c1cc(-c3ccccc3)no1)[C@@H](c1ccc(Cl)cc1)C2 [RTI-4229-177, Hydrochloride]
Result :: 1889

---

# Target of assay: serotonin transporter (Rattus norvegicus)
# Construct: from tissue
# Assay protocol: Inhibition of [3H]paroxetine radioligand binding at the serotonin transporter
# Condition summary: IC50 5-HT [3H]-paroxatine, Table II
Counter-ions that a name gives are not always drawn.
Recorded endpoint: pIC50
Please note pIC50 is a logarithmic value: minus log10 of concentration in mol/L. Answer with that number alone.

Please review the entries below; each comes with its answer.
Cc1ccc([C@H]2C[C@@H]3CC[C@H]([C@H]2c2nnc(-c4ccccc4)s2)N3C)cc1 [RTI-4229-199, Hydrochloride]    4.29
Cc1ccc([C@H]2C[C@@H]3CC[C@H]([C@H]2c2nn[nH]n2)N3C)cc1 [RTI-157, Hydrochloride]    4.36

Query :: I am curious: what pIC50 value has been reported for CN1[C@H]2CC[C@@H]1[C@@H](c1ncc(-c3ccccc3)s1)[C@@H](c1ccc(Cl)cc1)C2 [RTI-4229-219, Hydrochloride] ?
Result :: 4.99

---

# Target of assay: norepinephrine transporter (UniProt Q9WTR4)
# Assay protocol: Inhibition of [3H]nisoxetine radioligand binding at the norepinephrine transporter
# Condition summary: read-out: NEN IC50 for inhibition of radioligand binding; NEN=[3H] nisoxetine
Recorded endpoint: pIC50
Note: pIC50 values are expressed as the negative base-10 logarithm of concentration in M.

Please review the entries below; each comes with its answer.
Cc1ccc(C2CC3CCC([C@@H]2c2nc(-c4ccccc4)no2)N3C)cc1 (some centres unmarked)    4.64
COC(=O)[C@@H]1C2CCC(C[C@@H]1c1ccc(N)c(Br)c1)N2C (some centres unmarked)    6.55
CN1C2CCC1[C@@H](c1cc(-c3ccc(F)cc3)no1)[C@@H](c1ccc(Cl)cc1)C2 (some centres unmarked)    6.04
CCc1ccc(C2CC3CCC(N3)C2C(=O)OC)cc1I (centres unmarked)    6.83

Next up:
Query :: Query: pIC50; subject: C=Cc1ccc(C2CC3CCC(N3)C2C(=O)OC)cc1 (centres unmarked)
Result :: 7.83

---

# Target of assay: UniProt Q9WTR4
# Assay protocol: Inhibition of [3H]nisoxetine radioligand binding at the norepinephrine transporter
# Condition summary: read-out: NEN IC50 for inhibition of radioligand binding; NEN=[3H] nisoxetine
pIC50: −log10 of the molar value. Structures can show the parent of a compound that is named as a salt.
Class 1 (yes): pIC50 at least 7. Class 0 (no): pIC50 below 7.

COC(=O)C1C2CCC(CC1c1ccc(Cl)cc1)N2 (stereo not drawn)    1 (yes)
Cc1ccccc1OC(=O)C1C(c2ccc(Cl)cc2)CC2CCC1N2C (stereo not drawn)    0 (no)
Cc1noc(C2C(c3ccccc3)CC3CCC2N3C)n1 (stereo not drawn) [RTI-4229-126]    0 (no)
CN1[C@H]2CC[C@@H]1[C@@H](c1cc(-c3ccccc3)no1)[C@@H](c1ccc(Cl)cc1)C2 [RTI-4229-177, Hydrochloride]    0 (no)
Cc1ccc(C2CC3CCC(C2c2cc(C)no2)N3C)cc1.Cl (stereo not drawn) [RTI-4229-171, Hydrochloride]    0 (no)
CN1C2CCC1C(C(=O)OCCc1ccc(N)c(I)c1)C(c1ccc(Cl)cc1)C2 (stereo not drawn)    0 (no)
COC(=O)C1C(c2ccc(I)cc2)CC2CCC1N2C (stereo not drawn) [RTI-4229-55]    1 (yes)
CN1[C@H]2CC[C@@H]1[C@@H](c1cc(-c3ccccc3)no1)[C@@H](c1ccc(I)cc1)C2 [RTI-4229-181, Hydrochloride]    0 (no)

Query :: Item CN1C2CCC1C(C(=O)OC1CC1)C(c1ccc(Cl)cc1)C2 (stereo not drawn) with pIC50 of 7 or above?
Result :: 0 (no)

Query :: API: above_or_equal(metric=pIC50, cutoff=7) for item CCCc1ccc(C2CC3CCC(C2C(=O)OC)N3C)cc1 (stereo not drawn)
Result :: 0 (no)

Query :: Confirm if pIC50 reported for the molecule CN1C2CCC1C(c1nc(-c3ccc(Br)cc3)no1)C(c1ccc(Cl)cc1)C2 (stereo not drawn) is 7 or above.
Result :: 0 (no)

Query :: Check the entry COC(=O)C1C(c2ccc(F)cc2)CC2CCC1N2C (stereo not drawn) : does pIC50 equal or exceed 7?
Result :: 0 (no)

Query :: Confirm if pIC50 reported for the molecule COC(=O)C1C(c2ccc(I)cc2)CC2CCC1N2C (stereo not drawn) [RTI-4229-352] is 7 or above.
Result :: 1 (yes)

src = patent US6706880B2
